# reported koff; entries follow
Target: T1, recombinant human LAG-3-his protein (Novoprotein) (human, UniProt P18627 23-450)
T1 construct: Bought; also called huLAG-3; not shown: His tag
T1 sequence (looked up): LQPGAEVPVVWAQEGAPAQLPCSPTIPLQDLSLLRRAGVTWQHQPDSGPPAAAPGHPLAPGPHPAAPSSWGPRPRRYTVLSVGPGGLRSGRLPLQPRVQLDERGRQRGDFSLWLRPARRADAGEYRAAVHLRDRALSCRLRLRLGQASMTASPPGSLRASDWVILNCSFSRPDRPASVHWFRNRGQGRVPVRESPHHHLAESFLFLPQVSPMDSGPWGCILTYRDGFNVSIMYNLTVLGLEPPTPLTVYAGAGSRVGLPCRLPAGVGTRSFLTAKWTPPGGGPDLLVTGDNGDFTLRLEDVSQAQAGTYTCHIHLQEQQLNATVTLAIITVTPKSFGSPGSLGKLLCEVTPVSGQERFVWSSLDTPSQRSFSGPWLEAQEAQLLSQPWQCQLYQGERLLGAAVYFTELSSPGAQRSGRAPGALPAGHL
Assay: BLI Octet, Ab on AHC sensor, huLAG-3-his; test group 2
Output spec: scalar in s⁻¹, unitless text.

Use the examples below as a reference point.
# binder, koff, s⁻¹
data = [
    ("HumAb747V-71 (antibody, human IgG1, V domains shown, engineered HumAb747-60 variant; human IgG1/kappa constant domains) VH: EVQLVQSGAEVKKPGATVKLSCTASGFNIKDDYMHWVKQRPEQGLDWIGWIVPRNGNTVYASKFQGKATITADTSTNTAYLELSSLRSEDTAVYYCTVYGDYWGQGTTVTVSS VL: DIQMTQSPSSLSASVGDRVTITCRASQEISGYLSWLQQKPGGAIKRLIYAASALDSGVPSRFSGSRSGSDYTLTISSLQPEDFADYYCLQYASYPLTFGQGTKLELK", 0.000292),
    ("HumAb747V-69 (antibody, human IgG1, V domains shown, engineered HumAb747-60 variant; human IgG1/kappa constant domains) VH: EVQLVQSGAEVKKPGATVKLSCTASGFNIKDDYMHWVKQRPEQGLDWIGWIVPENGNTVYASKFQGKATITADTSTNTAYLELSSLRSEDTAVYYCTVYGDYWGQGTTVTVSS VL: DIQMTQSPSSLSASVGDRVTITCRASQEISGYLSWLQQKPGGAIKRLIYAASTLDSGVPSRFSGSRSGSDYTLTISSLQPEDFADYYCLQYASYPLTFGQGTKLELK", 0.000357),
    ("HumAb747V-70 (antibody, human IgG1, V domains shown, engineered HumAb747-60 variant; human IgG1/kappa constant domains) VH: EVQLVQSGAEVKKPGATVKLSCTASGFNIKDDYMHWVKQRPEQGLDWIGWIVPRNGNTVYASKFQGKATITADTSTNTAYLELSSLRSEDTAVYYCTVYGDYWGQGTTVTVSS VL: DIQMTQSPSSLSASVGDRVTITCRASQEISGYLSWLQQKPGGAIKRLIYAASTLDLGVPSRFSGSRSGSDYTLTISSLQPEDFADYYCLQYASYPLTFGQGTKLELK", 0.000273),
]

What the record says about mAb747c (antibody, V domains shown, also called mAb717c) VH: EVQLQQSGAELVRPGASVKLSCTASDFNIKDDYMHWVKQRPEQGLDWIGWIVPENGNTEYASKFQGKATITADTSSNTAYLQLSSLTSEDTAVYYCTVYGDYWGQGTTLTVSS VL: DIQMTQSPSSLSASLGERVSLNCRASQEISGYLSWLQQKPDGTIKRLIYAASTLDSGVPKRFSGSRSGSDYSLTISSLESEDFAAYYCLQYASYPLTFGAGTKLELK : koff is 0.000676

What the record says about HumAb747V-67 (antibody, human IgG1, V domains shown, engineered HumAb747-60 variant; human IgG1/kappa constant domains) VH: EVQLVQSGAEVKKPGATVKLSCTASGFNIKDDYMHWVKQRPEQGLDWIGWIVPENGNTVYASKFQGKATITADTSTNTAYLELSSLRSEDTAVYYCTVYGDYWGQGTTVTVSS VL: DIQMTQSPSSLSASVGDRVTITCRASQEISGYLSWLQQKPGGAIKRLIYAASALDSGVPSRFSGSRSGSDYTLTISSLQPEDFADYYCLQYASYPLTFGQGTKLELK : koff is 0.000319

What the record says about HumAb747V-68 (antibody, human IgG1, V domains shown, engineered HumAb747-60 variant; human IgG1/kappa constant domains) VH: EVQLVQSGAEVKKPGATVKLSCTASGFNIKDDYMHWVKQRPEQGLDWIGWIVPENGNTVYASKFQGKATITADTSTNTAYLELSSLRSEDTAVYYCTVYGDYWGQGTTVTVSS VL: DIQMTQSPSSLSASVGDRVTITCRASQEISGYLSWLQQKPGGAIKRLIYAASALDLGVPSRFSGSRSGSDYTLTISSLQPEDFADYYCLQYASYPLTFGQGTKLELK : koff is 0.000295

What the record says about HumAb747V-72 (antibody, human IgG1, V domains shown, engineered HumAb747-60 variant; human IgG1/kappa constant domains) VH: EVQLVQSGAEVKKPGATVKLSCTASGFNIKDDYMHWVKQRPEQGLDWIGWIVPRNGNTVYASKFQGKATITADTSTNTAYLELSSLRSEDTAVYYCTVYGDYWGQGTTVTVSS VL: DIQMTQSPSSLSASVGDRVTITCRASQEISGYLSWLQQKPGGAIKRLIYAASALDLGVPSRFSGSRSGSDYTLTISSLQPEDFADYYCLQYASYPLTFGQGTKLELK : koff is 0.000247
